# Target or system: T1, LAG3 Protein, Human, Recombinant (His Tag) (Sino Biological Catalog No. 16498-H08H) (human, UniProt P18627 23-450)
# T1 construct: Bought protein; also called hLAG3-His; LAG3-His; not shown: His tag
# T1 sequence (looked up): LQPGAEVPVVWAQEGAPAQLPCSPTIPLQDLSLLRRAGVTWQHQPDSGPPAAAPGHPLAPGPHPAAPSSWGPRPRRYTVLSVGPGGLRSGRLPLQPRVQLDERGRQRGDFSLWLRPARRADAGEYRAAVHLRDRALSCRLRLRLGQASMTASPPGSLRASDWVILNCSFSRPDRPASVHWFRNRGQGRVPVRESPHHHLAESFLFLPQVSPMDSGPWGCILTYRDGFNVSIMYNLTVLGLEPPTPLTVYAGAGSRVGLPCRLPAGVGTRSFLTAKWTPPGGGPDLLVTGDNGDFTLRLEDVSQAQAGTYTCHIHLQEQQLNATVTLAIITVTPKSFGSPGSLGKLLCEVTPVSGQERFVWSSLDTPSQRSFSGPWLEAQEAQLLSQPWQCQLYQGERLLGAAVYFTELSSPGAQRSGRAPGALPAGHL
# Assay remarks: SPR binning on LAG3-His; competitor 17
Each entry below carries its recorded RU.

Binder	Unit descriptor	RU
sdAb No. 27 (VHH, Fc of the tested form not described; also called sdAb 27; not shown: Fc part implied by anti-human Fc capture and anti-human IgG Fc detection) VHH: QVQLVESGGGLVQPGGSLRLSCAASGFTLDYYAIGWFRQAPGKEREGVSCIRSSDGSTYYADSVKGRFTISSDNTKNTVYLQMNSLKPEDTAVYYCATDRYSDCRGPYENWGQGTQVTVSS	RU	-11.7
sdAb No. 25 (VHH, Fc of the tested form not described; also called sdAb 25; sdAb #25; not shown: Fc part implied by anti-human Fc capture and anti-human IgG Fc detection) VHH: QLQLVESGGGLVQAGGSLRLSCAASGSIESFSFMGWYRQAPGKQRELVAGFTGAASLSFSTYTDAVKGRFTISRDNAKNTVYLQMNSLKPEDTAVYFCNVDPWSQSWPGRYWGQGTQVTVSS	RU	41
